Data credit: patent US9422285B2

Biological target: recombinant guanylate cyclase reporter cell line (Rattus norvegicus, UniProt P19686+P20595)
Construct: expressed in transfected cells
Sequence (P19686 1-690): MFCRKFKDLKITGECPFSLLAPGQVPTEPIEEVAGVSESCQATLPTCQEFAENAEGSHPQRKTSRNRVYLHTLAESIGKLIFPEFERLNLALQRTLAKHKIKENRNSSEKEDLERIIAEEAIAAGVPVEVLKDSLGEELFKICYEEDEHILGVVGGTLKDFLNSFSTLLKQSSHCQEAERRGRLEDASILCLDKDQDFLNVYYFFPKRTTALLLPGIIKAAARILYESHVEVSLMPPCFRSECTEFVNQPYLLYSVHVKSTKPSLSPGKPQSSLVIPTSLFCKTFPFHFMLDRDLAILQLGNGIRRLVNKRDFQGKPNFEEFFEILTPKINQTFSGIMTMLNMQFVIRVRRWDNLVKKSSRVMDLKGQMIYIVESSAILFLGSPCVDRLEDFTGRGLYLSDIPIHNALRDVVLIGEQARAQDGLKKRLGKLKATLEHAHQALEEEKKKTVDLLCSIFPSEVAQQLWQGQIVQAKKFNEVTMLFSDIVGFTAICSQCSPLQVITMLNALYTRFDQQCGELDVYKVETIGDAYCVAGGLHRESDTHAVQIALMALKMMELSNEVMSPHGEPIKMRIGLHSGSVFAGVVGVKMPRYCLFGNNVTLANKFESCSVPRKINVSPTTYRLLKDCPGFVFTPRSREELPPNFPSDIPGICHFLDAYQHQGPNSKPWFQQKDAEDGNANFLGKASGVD
Sequence (P20595 1-619): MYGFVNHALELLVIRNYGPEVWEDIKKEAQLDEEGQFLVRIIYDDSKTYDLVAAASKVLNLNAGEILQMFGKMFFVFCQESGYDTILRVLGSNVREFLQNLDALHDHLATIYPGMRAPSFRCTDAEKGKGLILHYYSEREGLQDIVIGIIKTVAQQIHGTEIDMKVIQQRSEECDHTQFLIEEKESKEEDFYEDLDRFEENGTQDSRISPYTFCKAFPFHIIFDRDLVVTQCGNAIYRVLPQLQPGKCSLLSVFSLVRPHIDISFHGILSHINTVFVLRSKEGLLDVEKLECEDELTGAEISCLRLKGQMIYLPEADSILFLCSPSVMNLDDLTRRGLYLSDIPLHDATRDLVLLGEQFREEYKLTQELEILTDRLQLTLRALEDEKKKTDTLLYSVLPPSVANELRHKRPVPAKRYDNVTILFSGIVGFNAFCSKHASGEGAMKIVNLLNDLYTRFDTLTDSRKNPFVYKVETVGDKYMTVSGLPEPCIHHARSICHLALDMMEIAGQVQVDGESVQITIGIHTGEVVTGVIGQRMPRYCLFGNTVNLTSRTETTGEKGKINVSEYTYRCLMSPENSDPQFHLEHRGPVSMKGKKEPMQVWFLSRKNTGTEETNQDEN
Test: Effect on a recombinant guanylate cyclase reporter cell line (B-2)
Type: cell-based
Details: in some cases mean values for individual determinations
Description: B-2. Effect on a Recombinant Guanylate Cyclase Reporter Cell Line The cellular effect of the inventive compounds is determined using a recombinant guanylate cyclase reporter cell line, as described in F. Wunder et al., Anal. Biochem. 339, 104-112 (2005). Representative MEC values (MEC=minimum effective concentration) for the inventive compounds are shown in the table below (in some cases as mean values for individual determinations): […]
Counter-ions that a name gives are not always drawn.
# reported MEC (minimum effective concentration); entries follow
Use µM as the unit, but write only the number.

Sample records with MEC (minimum effective concentration):
>>> measured_number("Cc1cc(OCc2c(F)ccc(F)c2F)n2nc(C)c(C(=O)NCc3ncc[nH]3)c2c1")
3.0
>>> measured_number("Cc1cc(OCc2c(F)cccc2F)n2nc(C)c(C(=O)NCC(C)(N)CCCF)c2c1 (single isomer, unassigned) [Example 45]")
0.3
>>> measured_number("Cc1cc(OCc2c(F)cccc2F)n2nc(C)c(C(=O)NCC(C)(C)N)c2c1 [Example 1, formate]")
2
>>> measured_number("Cc1cc(OCc2c(F)cccc2F)n2nc(C)c(C(=O)N[C@@H](CO)c3ccc(C)o3)c2c1")
1.0
>>> measured_number("Cc1cc(OCc2c(F)cccc2F)n2nc(C3CC3)c(C(=O)NCC(C)(N)CCC(F)(F)F)c2c1 (single isomer, unassigned)")
0.03
>>> measured_number("Cc1cc(OCc2c(F)cccc2F)n2nc(C)c(C(=O)NCC(C)(N)CC(C)C)c2c1 (racemic)")
0.3

-- ask Field request: MEC (minimum effective concentration) | item: Cc1cc(OCc2c(F)ccc(F)c2F)n2nc(C)c(C(=O)NC3(c4ccc(Cl)cc4)CCCC3)c2c1
-- reply 1.0

###

Target: recombinant guanylate cyclase reporter cell line (Rattus norvegicus, UniProt P19686+P20595)
Construct: expressed in transfected cells
Assay: Effect on a recombinant guanylate cyclase reporter cell line (B-2)
Format: cell-based
Details: in some cases mean values for individual determinations
Structures can show the parent of a compound that is named as a salt.
# reported MEC (minimum effective concentration); entries follow
Use µM as the unit, but write only the number.

Sample records with MEC (minimum effective concentration):
>>> measured_number("C=CCONC(=O)c1c(C)nn2c(OCc3c(F)cccc3F)cc(C)cc12 [Example 65, trifluoroacetate]")
3.0
>>> measured_number("Cc1cc(OCc2c(F)ccc(F)c2F)n2nc(C)c(C(=O)NC(CO)c3ccc(F)cc3)c2c1 (racemic)")
0.1
>>> measured_number("COc1cccc(C(CN)NC(=O)c2c(C)nn3c(OCc4c(F)cccc4F)cc(C)cc23)c1 (racemic)")
1.0
>>> measured_number("Cc1cc(OCc2c(F)cccc2F)n2nc(C)c(C(=O)N[C@H]3CCNC3=O)c2c1")
1.0
>>> measured_number("COC(=O)[C@H]1CC[C@H](CNC(=O)c2c(C)nn3c(OCc4c(F)cccc4F)cc(C)cc23)CC1")
1.0

-- ask Field request: MEC (minimum effective concentration) | item: Cc1cc(OCc2c(F)ccc(F)c2F)n2nc(C)c(C(=O)NC3CC4CCCC(C3)N4C)c2c1 (stereo not drawn)
-- reply 0.3

-- ask // same read-out, input: Cc1cc(OCc2c(F)ccc(F)c2F)n2nc(C)c(C(=O)Nc3c(C(F)(F)F)n[nH]c3C)c2c1
-- reply 0.3

-- ask // same read-out, input: COc1ccc2c(c1)C(NC(=O)c1c(C)nn3c(OCc4c(F)cccc4F)cc(C)cc13)CCC2 (racemic)
-- reply 1.0

-- ask // same read-out, input: Cc1cc(OCc2c(F)ccc(F)c2F)n2nc(C)c(C(=O)NCc3ccccc3-c3cccnc3)c2c1
-- reply 0.3

-- ask // same read-out, input: CCCC(C)(N)CNC(=O)c1c(C)nn2c(OCc3c(F)cccc3F)cc(C)cc12 (single isomer, unassigned)
-- reply 0.3

###

Experiment: Pharmacokinetic parameters following intravenous administration in rats (B-6)
Type: in vivo, male Wistar rats
# reported CLblood; entries follow
Use mL/min/kg as the unit, but write only the number.

>>> measured_number("CCCC(C)(N)CNC(=O)c1c(C)nn2c(OCc3c(F)cccc3F)cc(C)cc12 (single isomer, unassigned)")
41
>>> measured_number("Cc1cc(OCc2c(F)cccc2F)n2nc(C)c(C(=O)NCC(C)(N)CCC(F)(F)F)c2c1 (single isomer, unassigned)")
42.7
>>> measured_number("Cc1cc(OCc2c(F)ccc(F)c2F)n2nc(C)c(C(=O)NCC(C)(N)CCC(F)(F)F)c2c1 (single isomer, unassigned; enantiomer b)")
36.5
>>> measured_number("CCCC(C)(N)CNC(=O)c1c(C2CC2)nn2c(OCc3c(F)ccc(F)c3F)cc(C)cc12 (single isomer, unassigned; enantiomer b)")
36.8
>>> measured_number("CCCC(C)(N)CNC(=O)c1c(C2CC2)nn2c(OCc3c(F)cccc3F)cc(C)cc12 (single isomer, unassigned)")
46

# evaluate next
-- ask Field request: CLblood | item: Cc1cc(OCc2c(F)ccc(F)c2F)n2nc(C3CC3)c(C(=O)NCC(C)(N)CCC(F)(F)F)c2c1 (single isomer, unassigned; enantiomer b)
-- reply 48.7

###

# reported MEC (minimum effective concentration); entries follow
Biological target: recombinant guanylate cyclase reporter cell line (Rattus norvegicus, UniProt P19686+P20595)
Construct: expressed in transfected cells
Test: Effect on a recombinant guanylate cyclase reporter cell line (B-2)
Assay type: cell-based
Conditions: in some cases mean values for individual determinations
Structures can show the parent of a compound that is named as a salt.
Use µM as the unit, but write only the number.

Sample records with MEC (minimum effective concentration):
>>> measured_number("Cc1cc(OCc2c(F)ccc(F)c2F)n2nc(C)c(C(=O)N[C@@H](CO)C(=O)Nc3ccc4ccccc4c3)c2c1 [Example 7]")
1.0
>>> measured_number("Cc1cc(OCc2c(F)cccc2F)n2nc(C)c(C(=O)NNc3ccc(F)cc3)c2c1 [Example 66, trifluoroacetate]")
0.3
>>> measured_number("Cc1cc(OCc2c(F)ccc(F)c2F)n2nc(C3CC3)c(C(=O)NCC(C)(N)CCC(F)(F)F)c2c1 (single isomer, unassigned; enantiomer b) [Example 170]")
0.1
>>> measured_number("Cc1cc(OCc2c(F)cccc2F)n2nc(C)c(C(=O)NNC(=O)CN(C)C)c2c1 [Example 67]")
3.0
>>> measured_number("Cc1cc(OCc2c(F)ccc(F)c2F)n2nc(C)c(C(=O)NCc3ccc(Cl)nc3)c2c1 [Example 21]")
0.3
>>> measured_number("Cc1cc(OCc2c(F)cccc2F)n2nc(C)c(C(=O)NC3CCOc4ccccc43)c2c1 (racemic) [Example 87]")
0.3

-- ask Field request: MEC (minimum effective concentration) | item: Cc1cc(OCc2c(F)cccc2F)n2nc(C)c(C(=O)NC3CCNC(C(F)(F)F)C3)c2c1 (stereo not shown) [Example 154]
-- reply 1.0
